Give measured MIC for each item. Keep answers brief.
tested on: Aspergillus fumigatus; experiment: Antifungal activity against Aspergillus fumigatus by micro-broth dilution method; format: functional

[ask] Bench note: what MIC did Cc1cccc(Cn2cc(CN(CC(O)(Cn3cncn3)c3ccc(F)cc3F)C3CC3)nn2)c1 (configuration not stated) show?
[reply] 64 µg/mL

[ask] Now give it for CC(C)N(Cc1cn(Cc2ccccc2Cl)nn1)CC(O)(Cn1cncn1)c1ccc(F)cc1F (configuration not stated) too.
[reply] > 64 µg/mL

[ask] Thanks! And CC(C)N(Cc1cn(C2CCCCC2)nn1)CC(O)(Cn1cncn1)c1ccc(F)cc1F (configuration not stated) ?
[reply] > 64 µg/mL

[ask] And for OC(CN(Cc1cn(Cc2cccc(F)c2)nn1)C1CC1)(Cn1cncn1)c1ccc(F)cc1F (configuration not stated) ?
[reply] 64 µg/mL

[ask] Okay, and CC(C)N(Cc1cn(Cc2ccc(C(C)(C)C)cc2)nn1)CC(O)(Cn1cncn1)c1ccc(F)cc1F (configuration not stated) ?
[reply] > 64 µg/mL

[ask] Thanks! And CC(C)N(Cc1cn(Cc2ccc(Cl)cc2Cl)nn1)CC(O)(Cn1cncn1)c1ccc(F)cc1F (configuration not stated) ?
[reply] > 64 µg/mL

[ask] Next up: CC(C)N(Cc1cn(Cc2ccccc2C#N)nn1)CC(O)(Cn1cncn1)c1ccc(F)cc1F (configuration not stated)
[reply] > 64 µg/mL

* * *

tested on: Candida albicans; assay: Antifungal activity against Candida albicans Y0109 after 24 hrs by micro-broth dilution method; type: functional; conditions: Y0109, 24 h
The threshold is 0.06 µg/mL. Values of MIC beneath it are tagged Condition met; values meeting or exceeding it are tagged Condition not met.

[ask] Determine whether this compound shows MIC lower than 0.06 µg/mL (ties excluded): N#Cc1cccc(Cn2cc(CN(CC(O)(Cn3cncn3)c3ccc(F)cc3F)C3CC3)nn2)c1 (stereo not drawn)
[reply] Condition not met

[ask] Please answer likewise for CN(C/C=C/C#CC(C)(C)C)Cc1cccc2ccccc12
[reply] Condition not met

[ask] Next record, please: OC(CN(Cc1cn(Cc2c(Cl)cccc2Cl)nn1)C1CC1)(Cn1cncn1)c1ccc(F)cc1F (stereo not drawn)
[reply] Condition not met

[ask] Check CC(C)N(Cc1cn(Cc2ccc(C#N)cc2)nn1)CC(O)(Cn1cncn1)c1ccc(F)cc1F (stereo not drawn) too.
[reply] Condition met

[ask] Same for CC(C)N(Cc1cn(Cc2cccc(Cl)c2)nn1)CC(O)(Cn1cncn1)c1ccc(F)cc1F (stereo not drawn)
[reply] Condition met

[ask] Now the compound CC(C)N(Cc1cn(Cc2cccc([N+](=O)[O-])c2)nn1)CC(O)(Cn1cncn1)c1ccc(F)cc1F (stereo not drawn)
[reply] Condition not met

[ask] Same question for CC(C)N(Cc1cn(Cc2cccc(Br)c2)nn1)CC(O)(Cn1cncn1)c1ccc(F)cc1F (stereo not drawn) please.
[reply] Condition not met

[ask] // same read-out, input: CC(C)N(Cc1cn(Cc2ccccc2C#N)nn1)CC(O)(Cn1cncn1)c1ccc(F)cc1F (stereo not drawn)
[reply] Condition met

[ask] Also Cc1ccc(Cn2cc(CN(CC(O)(Cn3cncn3)c3ccc(F)cc3F)C(C)C)nn2)cc1 (stereo not drawn) , if possible.
[reply] Condition not met

[ask] Try this compound next: CCCCCn1cc(CN(CC(O)(Cn2cncn2)c2ccc(F)cc2F)C2CC2)nn1 (stereo not drawn)
[reply] Condition not met

[ask] Quick one: CCC(C)n1ncn(-c2ccc(N3CCN(c4ccc(OCC5COC(Cn6cncn6)(c6ccc(Cl)cc6Cl)O5)cc4)CC3)cc2)c1=O (stereo not drawn)
[reply] Condition not met

[ask] Would you mind doing CC(C)N(Cc1cn(Cc2ccc(Br)cc2)nn1)CC(O)(Cn1cncn1)c1ccc(F)cc1F (stereo not drawn) as well?
[reply] Condition not met

[ask] Lookup CC(C)N(Cc1cn(Cc2ccccc2Br)nn1)CC(O)(Cn1cncn1)c1ccc(F)cc1F (stereo not drawn)
[reply] Condition met

[ask] Again, but for CC(C)N(Cc1cn(Cc2ccc([N+](=O)[O-])cc2)nn1)CC(O)(Cn1cncn1)c1ccc(F)cc1F (stereo not drawn)
[reply] Condition met

[ask] Try O=[N+]([O-])c1ccccc1Cn1cc(CN(CC(O)(Cn2cncn2)c2ccc(F)cc2F)C2CC2)nn1 (stereo not drawn) next.
[reply] Condition not met

[ask] Request: OC(CN(Cc1cn(Cc2ccccc2Cl)nn1)C1CC1)(Cn1cncn1)c1ccc(F)cc1F (stereo not drawn)
[reply] Condition not met

[ask] Now consider CC(C)N(Cc1cn(Cc2ccc(Cl)cc2Cl)nn1)CC(O)(Cn1cncn1)c1ccc(F)cc1F (stereo not drawn) and answer again.
[reply] Condition met

[ask] And then CC(C)N(Cc1cn(Cc2ccc(C(C)(C)C)cc2)nn1)CC(O)(Cn1cncn1)c1ccc(F)cc1F (stereo not drawn) , what is it?
[reply] Condition not met

* * *

tested on: Cryptococcus neoformans; test: Antifungal activity against Cryptococcus neoformans after 72 hrs by micro-broth dilution method; type: functional
Exercise: for every item that follows, state its recorded MIC.
Record the value in µg/mL, omitting the unit from your answer.

[ask] Given the entry Cc1ccc(Cn2cc(CN(CC(O)(Cn3cncn3)c3ccc(F)cc3F)C3CC3)nn2)cc1 (stereo not drawn) , report its measured MIC.
[reply] 1

[ask] OC(CN(Cc1cn(Cc2ccc(Br)cc2)nn1)C1CC1)(Cn1cncn1)c1ccc(F)cc1F (stereo not drawn) , same question.
[reply] 16

[ask] Please do the same for OC(CN(Cc1cn(C2CCCCC2)nn1)C1CC1)(Cn1cncn1)c1ccc(F)cc1F (stereo not drawn) as well.
[reply] 2

[ask] Next up: OC(Cn1cncn1)(Cn1cncn1)c1ccc(F)cc1F
[reply] 8

[ask] Try this molecule too: OC(CN(Cc1cn(Cc2ccc(Cl)cc2)nn1)C1CC1)(Cn1cncn1)c1ccc(F)cc1F (stereo not drawn)
[reply] 16

[ask] Next molecule up: OC(CN(Cc1cn(Cc2ccccc2Cl)nn1)C1CC1)(Cn1cncn1)c1ccc(F)cc1F (stereo not drawn)
[reply] 4

[ask] Try this molecule too: CC(C)(C)c1ccc(Cn2cc(CN(CC(O)(Cn3cncn3)c3ccc(F)cc3F)C3CC3)nn2)cc1 (stereo not drawn)
[reply] 4

[ask] And for CC(C)N(Cc1cn(Cc2ccccc2[N+](=O)[O-])nn1)CC(O)(Cn1cncn1)c1ccc(F)cc1F (stereo not drawn) ?
[reply] 32

* * *

system: Aspergillus fumigatus; assay: Antifungal activity against Aspergillus fumigatus by micro-broth dilution method; format: functional
Reported endpoint: MIC

[ask] Notebook entry, Aspergillus fumigatus assay: MIC of C[C@@H]1[C@H](O)[C@@H](C)/C=C/C=C/C=C/C=C/C=C/C=C/C=C/[C@H](O[C@@H]2O[C@H](C)[C@@H](O)[C@H](N)[C@@H]2O)C[C@@H]2O[C@](O)(C[C@@H](O)C[C@@H](O)[C@H](O)CC[C@@H](O)C[C@@H](O)CC(=O)O[C@H]1C)C[C@H](O)[C@H]2C(=O)O = ?
[reply] 32 µg/mL

[ask] Item: CCC(C)n1ncn(-c2ccc(N3CCN(c4ccc(OCC5COC(Cn6cncn6)(c6ccc(Cl)cc6Cl)O5)cc4)CC3)cc2)c1=O (stereo not drawn)
[reply] 2 µg/mL

[ask] Also OC(CN(Cc1cn(Cc2ccc(F)cc2)nn1)C1CC1)(Cn1cncn1)c1ccc(F)cc1F (stereo not drawn) ?
[reply] > 64 µg/mL

[ask] Try CC(C)N(Cc1cn(Cc2ccccc2[N+](=O)[O-])nn1)CC(O)(Cn1cncn1)c1ccc(F)cc1F (stereo not drawn) next.
[reply] > 64 µg/mL

[ask] And what about the molecule CC(C)N(Cc1cn(Cc2ccc(C#N)cc2)nn1)CC(O)(Cn1cncn1)c1ccc(F)cc1F (stereo not drawn) ?
[reply] > 64 µg/mL

[ask] Also O=[N+]([O-])c1ccccc1Cn1cc(CN(CC(O)(Cn2cncn2)c2ccc(F)cc2F)C2CC2)nn1 (stereo not drawn) , if possible.
[reply] > 64 µg/mL

[ask] What would you report for CC(C)N(Cc1cn(Cc2cccc(Cl)c2)nn1)CC(O)(Cn1cncn1)c1ccc(F)cc1F (stereo not drawn) ?
[reply] > 64 µg/mL

[ask] Request: CC(C)N(Cc1cn(Cc2ccc(F)cc2)nn1)CC(O)(Cn1cncn1)c1ccc(F)cc1F (stereo not drawn)
[reply] > 64 µg/mL

Measured values drawn from ChEMBL document CHEMBL1250476 for this set.
